# assay_procedure: qHTS Assay for Lipid Storage Modulators in Drosophila S3 Cells;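 note: cells counted by Cell Tracker Red CMTPX staining in the red channel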
# measurement_parameters: BODIPY lipid droplet fluorescence, 18-24 h, cells fed with added oleic acid; measured here: cell count max response
About 2,100 (0.66%) of roughly 320,000 compounds were called active. About 53% were inconclusive and are not listed. The list comes from a sample in which actives are over-represented; it also holds close analogues and randomly drawn compounds.
outcome_measure: cell number change (%)

# compound, outcome_measure, unit_of_measurement, readout_value
data = [
    ("CCOc1ccc(N2C(=O)c3cccnc3C2=O)cc1", "cell number change", "%", -11.4),
    ("COc1ccc(N2C(=O)c3ccccc3C2=O)cc1", "cell number change", "%", 2.95),
    ("COc1ccc(C2CC(c3ccccc3)=NN2C(=O)CSc2ncccn2)cc1 (stereo unspecified)", "cell number change", "%", -10.6),
    ("O=C(CN1C(=O)NC2(CCCCCCC2)C1=O)Nc1ccc(Cl)cc1", "cell number change", "%", 27.1),
    ("COc1ccc(C2CC(c3ccccc3)=NN2C(=O)COC(=O)CNC(=O)c2ccccc2)cc1 (stereo unspecified)", "cell number change", "%", 17),
    ("CCOc1ccc(OCC)c(NC(=O)CCNS(=O)(=O)c2cc(Br)cnc2N)c1", "cell number change", "%", -2.69),
    ("O=C1Cc2ccccc2C(=O)N1c1ccccc1", "cell number change", "%", 9.57),
    ("COc1ccc(C2CC(c3ccc(OC)cc3OC(C)=O)=NN2C(=O)c2ccccc2)cc1 (stereo unspecified)", "cell number change", "%", -16.6),
    ("O=C1Cc2ccccc2N1c1ccccc1", "cell number change", "%", 11.5),
    ("COc1ccc2c(c1)C(=O)N(c1ccccc1)C(=O)C2", "cell number change", "%", -11.7),
    ("COc1ccc(N2C(=O)Cc3ccccc3C2=O)cc1", "cell number change", "%", 10.9),
]
